- test target: HiBit-KRAS^G12C (Homo sapiens, UniProt P01116, G12C)
- Sequence (P01116 1-186 isoform P01116-2 G12C limits assumed): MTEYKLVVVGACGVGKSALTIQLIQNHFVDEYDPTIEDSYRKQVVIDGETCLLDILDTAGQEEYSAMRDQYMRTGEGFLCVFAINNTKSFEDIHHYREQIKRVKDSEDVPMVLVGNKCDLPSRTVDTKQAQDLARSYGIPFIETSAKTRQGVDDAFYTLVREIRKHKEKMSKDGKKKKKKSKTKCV
- assay info: HiBit degradation assay in SW1573 HiBit-KRas^G12C cells
- Assay type: cell-based
- Parameters: expressed in transfected cells; host or cells: SW1573 (clone E6), modified pcDNA3.1 vector, TK promoter
- condition description: read-out: KRas^G12C-HiBiT (SW1573; 0.5% DMSO) IC50***; SW1573 HiBit-KRas^G12C, 0.5% DMSO, 24 hours
parameter: DC50

compound	result
C=CC(=O)N1CCN(c2nc(OC[C@@H]3CCCN3CCCCOCC(=O)N[C@H](C(=O)N3C[C@H](O)C[C@H]3C(=O)N[C@@H](C)c3ccc(-c4scnc4C)cc3)C(C)(C)C)nc3c(F)c(-c4cc(O)cc5ccccc45)c(Cl)cc23)C[C@@H]1CC#N [Compound 100]	100 to 1000 nM

Now for a further compound.
// DC50 lookup, key: C=CC(=O)N1CCN(c2nc(OCCN3CCC(F)(CN(C)CC(=O)N[C@H](C(=O)N4C[C@H](O)C[C@H]4C(=O)N[C@@H](C)c4ccc(-c5scnc5C)cc4)C(C)(C)C)CC3)nc3c(F)c(-c4cc(O)cc5ccccc45)c(Cl)cc23)C[C@@H]1CC#N [Compound 120]
100 to 1000 nM

Data provenance is patent US20220370416A1.
